TGI values by entry
Test system: PC-3 prostate
assayRemarks: NCI tumour cell line growth inhibition, 48 h
property: TGI

compound="CC(=O)C1=C(C)N2C(=NC3=C(CCc4ccccc43)C2c2cccc(Br)c2)S1 (stereo not drawn)" property=TGI result="> 100 µM"
compound="CNC(=O)C1CCCN1C(=O)C(Cc1cnc[nH]1)NC(=O)C1CCC(=O)N1 (stereo not drawn)" property=TGI result="> 100 µM"
compound="COC(=O)c1ccc(COC(=O)N2C=CCC2C(=O)O)cc1 (stereo not drawn)" property=TGI result="> 100 µM"

----------
System: SN12C renal
assayRemarks: NCI tumour cell line growth inhibition, 48 h
TGI values by entry
property: TGI

compound="COC(=O)C1(Cc2cccc(C)c2)Cc2c(C)cccc2C1=O (stereo not drawn)" systemundertest="SN12C renal" result="> 100 µM"
compound=NC1=CC(=O)c2nc3ccccc3c3ccnc1c23 systemundertest="SN12C renal" result="> 74.1 µM"
compound="Nc1cccc2c1C1=NNC(=O)CC1C2 (stereo not drawn)" systemundertest="SN12C renal" result="> 100 µM"

----------
Test system: MDA-MB-231 breast
assayRemarks: NCI tumour cell line growth inhibition, 48 h
GI50 values by entry
property: GI50

compound="CCCC1=C(C(=O)OCC)C(c2ccccc2OC)C(C#N)=C(N)O1 (stereo not given)" result="22.4 µM"
compound=N=c1n(Cc2ccccc2)c(N)cc(=O)n1Cc1ccccc1 result="7.45 µM"
compound=NC1=CC(=O)c2nc3ccccc3c3ccnc1c23 result="16.9 µM"
compound="O=C1CCC(N2Cc3c(C#CCCCNC(=O)c4cc5c(o4)C(=O)c4ccccc4C5=O)cccc3C2=O)C(=O)N1 (stereo not given)" result="2.92 µM"
compound=COc1ccc2cc(Cn3cc[n+](Cc4ccc5ccccc5c4)c3)ccc2c1 result="1.55 µM"
compound=Cn1ccnc1C(=O)/C=C/c1ccc(CC(=O)Nc2ccc(F)cc2)cc1 result="2.96 µM"
compound=Oc1ccc(-c2cn3cc(Cl)sc3n2)cc1 result="> 100 µM"
compound=O=S(=O)(CCNCc1ccc(-c2ccc3ncnc(Nc4ccc(OCc5cccc(F)c5)c(Cl)c4)c3c2)o1)c1ccccc1 result="> 25 µM"
compound=O=C(CN1C(=O)S/C(=C\C(Cl)=C\c2ccccc2)C1=O)NCCc1ccc(O)cc1 result="2.09 µM"
compound=CC1(C)N=C(N)N=C(N)N1c1cccc(CCCCOc2ccccc2)c1 result="0.881 µM"

----------
Tested on: IGROV1 ovarian
assayRemarks: NCI tumour cell line growth inhibition, 48 h
TGI values by entry
property: TGI

molecule=O=C(Nc1sccc1S(=O)(=O)c1ccc(Cl)cc1)c1ccccc1 result="> 100 µM"
molecule="CC(C)(C)C1(O)C=C(O)C(=O)N1NC(=O)c1ccccc1Nc1ccccc1 (stereo not drawn)" result="> 100 µM"
molecule="COC(=O)C1=C(c2ccc3c(c2)OCO3)OC(c2ccc3c(c2)OCO3)C1 (stereo not drawn)" result="> 100 µM"

----------
GI50 values by entry
Test system: RXF 393 renal
assayRemarks: NCI tumour cell line growth inhibition, 48 h
property: GI50

compound=COc1ccc(-c2nn(-c3cccc(NC(=O)c4cccc(C(F)(F)F)c4)c3)cc2-c2ccncc2)cc1Cl property=GI50 result="1460 nM"
compound=CCN(CC)CCCCNc1ncc2cc(-c3cc(OC)cc(OC)c3)c(NC(=O)NC(C)(C)C)nc2n1 property=GI50 result="1630 nM"
compound="CCCC1=C(C(=O)OCC)C(c2ccccc2OC)C(C#N)=C(N)O1 (stereo not given)" property=GI50 result="46500 nM"
compound="O=C1CCC(N2Cc3c(C#CCCCNC(=O)c4cc5c(o4)C(=O)c4ccccc4C5=O)cccc3C2=O)C(=O)N1 (stereo not given)" property=GI50 result="4550 nM"
compound="O=C(Cc1ccccc1)NC(c1ccc(Cl)cc1)c1c(O)ccc2ccccc12 (stereo not given)" property=GI50 result="2170 nM"

----------
TGI values by entry
Test system: CAKI-1 renal
assayRemarks: NCI tumour cell line growth inhibition, 48 h
property: TGI

molecule="Cc1cn([C@H]2C[C@@H]3[C@@H](COC(CCl)N3O)O2)c(=O)[nH]c1=O (some centres not stated)" property=TGI result="> 100 µM"
molecule=N#C/C(=C1C=C/C(=N\O)C(Cl)=C\1)c1ccccc1 property=TGI result="21.3 µM"
molecule=COc1c(O)c(O)c2c(c1O)C(=O)c1cc(C)cc(O)c1C2=O property=TGI result="> 100 µM"
molecule=C/C(=N\Nc1nc2ccccc2s1)c1cnccn1 property=TGI result="> 42.2 µM"
molecule=O=C(Nc1sccc1S(=O)(=O)c1ccc(Cl)cc1)c1ccccc1 property=TGI result="> 100 µM"
molecule="CC(=O)OC1Oc2cc(C)c(C)cc2-c2oc(=O)c(-c3ccc(F)cc3)cc21 (configuration not stated)" property=TGI result="> 100 µM"
molecule=N#Cc1c(-c2cccc(Cl)c2)cc(-c2ccc(Cl)cc2)nc1N property=TGI result="86 µM"
molecule="CN(C)C1(N(C)C)Oc2c(c(=O)n(C)c(=O)n2C)C(c2ccccc2Br)C1(F)F (configuration not stated)" property=TGI result="> 100 µM"
molecule=NC(=NCCN1CCCCCCC1)NO property=TGI result="> 100 µM"
molecule=Oc1ccc(-c2cn3cc(Cl)sc3n2)cc1 property=TGI result="> 100 µM"
molecule=Cn1ccnc1C(=O)/C=C/c1ccc(CC(=O)Nc2ccc(F)cc2)cc1 property=TGI result="> 25 µM"
molecule=CCn1c(-c2nonc2N)nc2cncc(C(=O)NCCNC)c21 property=TGI result="14.4 µM"
molecule="CC1OC(n2c3ccccc3c3c4c(c5c6ccccc6[nH]c5c32)C(=O)N(CCN2CCOCC2)C4=O)CC(O)C1O (configuration not stated)" property=TGI result="6.37 µM"
molecule="c1ccc(CN2CCCCC(Sc3ccccc3)CC2)cc1 (configuration not stated)" property=TGI result="69.6 µM"
molecule=NC(=O)Nc1c([N+](=O)[O-])cc(C(F)(F)F)cc1[N+](=O)[O-] property=TGI result="> 100 µM"
molecule=COc1cc(-n2cnc(-c3ccc(Cl)cc3)c2)cc(OC)c1OC property=TGI result="> 100 µM"
molecule="COC(=O)C(Cc1c(C2Nc3ccccc3C2CC(NC(C)=O)C(=O)OC)[nH]c2ccccc12)NC(C)=O (configuration not stated)" property=TGI result="> 100 µM"

----------
Tested on: SF-295 CNS
assayRemarks: NCI tumour cell line growth inhibition, 48 h
TGI values by entry
property: TGI

molecule="C/C=C1\\CNC1C(=O)O (stereo not drawn)" property=TGI result="> 100 µM"
molecule="CC(C(=O)O)/C(=C\\c1ccc2c(c1)OCO2)C(=O)O (stereo not drawn)" property=TGI result="> 100 µM"
molecule=NCCCNCCSSC/C=C\CSSCCNCCCN property=TGI result="> 100 µM"

----------
System: EKVX NSCLC
assayRemarks: NCI tumour cell line growth inhibition, 48 h
property: TGI

compound=Cc1c(-c2nnc(-c3ccc(F)cc3)o2)nnn1-c1ccnc2c(C(F)(F)F)cccc12 result="> 100 µM"
compound="CCCCCCCCCCCCCCCCCC(=O)OCC(COC1OC(CS(=O)(=O)O)C(O)C(O)C1O)OC(=O)CCCCCCCCCCCCCCCCC (stereo not drawn)" result="> 100 µM"
compound=COc1ccc2cc(Cn3cc[n+](Cc4ccc5ccccc5c4)c3)ccc2c1 result="15.5 µM"

----------
GI50 values by entry
Tested on: A549 NSCLC
assayRemarks: NCI tumour cell line growth inhibition, 48 h
property: GI50

compound="CCCC1=C(C(=O)OCC)C(c2ccccc2OC)C(C#N)=C(N)O1 (stereo not drawn)" result="> 100 µM"
compound="CCC[CH2][Sn]1([CH2]CCC)[O]CC(CN2CCOCC2)[O]1 (stereo not drawn)" result="18.3 µM"
compound=COc1ccc2c(c1)/C(=C\c1c(Cl)n(C)c3ccccc13)C(=O)N2 result="0.818 µM"
compound=COc1cc(-n2cnc(-c3ccc(Cl)cc3)c2)cc(OC)c1OC result="> 100 µM"
compound=Cc1sc(NC2=NC(=O)/C(=C\c3ccccc3)S2)nc1-c1nc(NC2=NC(=O)/C(=C\c3ccccc3)S2)sc1C result="15.5 µM"
compound=O=C(Nc1ccc(OCc2nnc(-c3ccccc3)o2)c(F)c1)Nc1ccc(Cl)c(C(F)(F)F)c1 result="1.91 µM"
compound=O=C(NCCNc1nccc(-c2c(-c3ccc(F)cc3)nc3sccn23)n1)c1ccccc1 result="4.11 µM"
compound=S=C(c1ccc2c(c1)OCO2)N1CCN(c2cccc(Cl)c2)CC1 result="0.872 µM"

----------
TGI values by entry
Test system: OVCAR-4 ovarian
assayRemarks: NCI tumour cell line growth inhibition, 48 h
property: TGI (µM)

compound=O=C(NC1CCCCC1)NS(=O)(=O)c1ccc(-n2nc3c(c2-c2ccc(Cl)cc2)Cc2ccccc2-3)cc1 systemundertest="OVCAR-4 ovarian" property=TGI relationsymbol=> numericreadout=100
compound="CC(CO)(CBr)COC(=O)c1cc(Br)c(N)c(Br)c1 (configuration not stated)" systemundertest="OVCAR-4 ovarian" property=TGI relationsymbol=> numericreadout=100
compound=NCCCNCCSSC/C=C\CSSCCNCCCN systemundertest="OVCAR-4 ovarian" property=TGI relationsymbol=> numericreadout=100
compound=NC(=O)Nc1c([N+](=O)[O-])cc(C(F)(F)F)cc1[N+](=O)[O-] systemundertest="OVCAR-4 ovarian" property=TGI relationsymbol=> numericreadout=100
compound=CC[C@@H]1CC[C@@H]2[C@H](CC[C@]3(C)[C@@H](O)CC[C@@H]23)[C@H]1CO systemundertest="OVCAR-4 ovarian" property=TGI relationsymbol=> numericreadout=100
compound=O=C1c2cc([N+](=O)[O-])cc3cc([N+](=O)[O-])cc(c23)C(=O)N1CCCNCCNCCCN1C(=O)c2cc([N+](=O)[O-])cc3cc([N+](=O)[O-])cc(c23)C1=O systemundertest="OVCAR-4 ovarian" property=TGI relationsymbol== numericreadout=3.31
compound=Cc1ccc(C(=O)C#Cc2c[nH]c(=O)[nH]c2=O)cc1 systemundertest="OVCAR-4 ovarian" property=TGI relationsymbol== numericreadout=47.3
compound=CC1=NN(c2cccc(Cl)c2)C(=N/c2nc3ccccc3s2)/C1=C\c1cccs1 systemundertest="OVCAR-4 ovarian" property=TGI relationsymbol=> numericreadout=100
compound="CCC1c2[nH]c3ccccc3c2C[C@H]2C(=O)N3CCC[C@H]3C(=O)N12 (some centres not stated)" systemundertest="OVCAR-4 ovarian" property=TGI relationsymbol=> numericreadout=100
compound=CCN(CC)CCCCNc1ncc2cc(-c3cc(OC)cc(OC)c3)c(NC(=O)NC(C)(C)C)nc2n1 systemundertest="OVCAR-4 ovarian" property=TGI relationsymbol== numericreadout=25.5
compound=O=C1CC[C@H](c2ccc(O)c3c2C(=O)[C@@H]2O[C@@H]2C3=O)c2cccc(O)c21 systemundertest="OVCAR-4 ovarian" property=TGI relationsymbol== numericreadout=13.9
compound="CSc1nc2c(c(=O)[nH]1)N=C(c1ccc(Cl)cc1)CC(c1ccccc1)N2 (configuration not stated)" systemundertest="OVCAR-4 ovarian" property=TGI relationsymbol== numericreadout=23.6
